B1: Formin-binding protein 4, residues 200 to 261; numbered along this chain, Q8N3X1 (parent)
chain: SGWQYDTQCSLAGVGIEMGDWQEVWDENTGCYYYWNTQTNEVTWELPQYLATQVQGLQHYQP

Variants of: B1
Assay: abundance fitness (aPCA) (normalised: wild type 0, dead -1); higher = more abundant; growth selection in yeast, the domain comes from the species named
Settings: Homo sapiens
Class boundaries, taken from values of abundance fitness, are as follows: range A (below -0.3), range B (-0.3 to below -0.1), range C (-0.1 or more)

Band for the recorded abundance fitness of `Q53F` ?
range A

Quick check: band for `T37F`
range B

Consider `Y34P` . To which abundance fitness class does it belong?
range A

Place this variant in its band: `E45G`
range A

Hi there! Could you help me figure out the category for `P62K` please?
range C

Exam item: assign `L57M` to the correct category.
range B

Dear colleague, I would appreciate it if you could identify the bin for `S1H` and reply at your convenience.
range A

Which bin, given its abundance fitness, does `W3T` occupy?
range C

Textbook exercise: identify the category of the variant given here, `G19A` , according to its measured value.
range C

Sort into band: `Q61C`
range B

Band of `D6G` ?
range B

Determine which band this variant sits in: `T52Q`
range B

Tag the class for `W44I`
range A

In plain terms, what class is `V24D` ?
range B

Hi there! Could you help me figure out the category for `T39N` please?
range C

Pick a category. Item: `T37Y`
range B

Quick check: band for `D26V`
range A

Bin? `G56E`
range C

Tag the class for `P62C`
range C

# classify by abundance fitness band: `N28D`
range C

Determine which band this variant sits in: `V42M`
range C

Which abundance fitness category applies to `P62A` here?
range C

Band of `Q4G` ?
range B

Band assignment needed for `Y60K` please.
range C

Textbook exercise: identify the category of the variant given here, `Y33T` , according to its measured value.
range A

Lab note: sort `P62V` into the matching abundance fitness band.
range A

Textbook exercise: identify the category of the variant given here, `D6S` , according to its measured value.
range A

Exam item: assign `E27L` to the correct category.
range A

Which class is correct for the following variant? `Y49T`
range C

Which category fits this record: `D26K`
range A

Hi there! Could you help me figure out the category for `T29Q` please?
range B

Category lookup for the variant `D6A`
range A

Which abundance fitness category applies to `L46R` here?
range A

Please let me know in which category the item `C31N` belongs.
range C

Into which category would you place `W21I` ?
range A

Tag the class for `C31Q`
range C

Form: Item = `W44K` ; Class = ?
range C

Which abundance fitness band matches `P47K` ?
range B

Class? Entry: `Q8F`
range B

Record `W44Q` — which class?
range C

Place this variant in its band: `A12Q`
range B

Which category fits this record: `Y32Q`
range A

Category of `W25C` , please.
range B

Classify this variant: `D20T`
range A

Quick check: band for `V54T`
range A

Hey, which category is `E45A` in, do you know?
range B

Kindly state the category for this variant: `V54I`
range C

Hi there! Could you help me figure out the category for `W35R` please?
range C

// bin(item) where item = `T52V`
range C

Form field 'band' for `Q61H`
range B

For this variant, which bin applies? `W44L`
range B

Kindly state the category for this variant: `W21G`
range A

Record `M18H` — which class?
range A

For this variant, which bin applies? `Q61Y`
range B

Consider `P62L` . To which abundance fitness class does it belong?
range C

Into which category would you place `C9H` ?
range B

Exam item: assign `V54D` to the correct category.
range A

Record `Q53P` — which class?
range A

For the record `Y34G` , report the class its abundance fitness corresponds to.
range A

Which class does `E27K` fall in?
range C

State the band of `Q55T`
range B

Could you place `Y33S` in its proper category? Many thanks.
range B

Hey, which category is `Q22M` in, do you know?
range B

Which bin should I file `I16S` under?
range A

Given `G13Y` , name the class its abundance fitness places it in.
range A

Into which bin does this variant go? `N36I`
range A

Please indicate the class for `G15R` based on its abundance fitness.
range C

Class (by measured abundance fitness) for `E17D`
range C

Returns: class label. Input: `L50F`
range A

Categorize the following entry: `T39Y`
range A

Each variant maps to one class by abundance fitness. Which class for `E45H` ?
range A

Hello team, could you let me know which band the following variant falls into: `N28H`
range B

Would you mind sorting `G19Y` into the appropriate category?
range A

Classify this variant: `T37L`
range B

Looking at `A12T` , which class would you pick?
range A

Lab log: `E27Q` — assign abundance fitness category
range B

Which of the defined bands does the recorded abundance fitness of `N28S` sit within?
range B

Please report the category associated with `C9A` , nothing else.
range C

Please classify: `M18T`
range B

# bin lookup: classify `M18Y` by its abundance fitness
range A

Class label required: `Q48S`
range C

Assign a bin to `P47S`
range A

Assign a bin to `D26Y`
range A

# classify by abundance fitness band: `D26S`
range C

Returns: class label. Input: `V24N`
range B

Which of the defined bands does the recorded abundance fitness of `Q48E` sit within?
range C

Origin of measurements: the Human Domainome abundance scans (Beltran et al. 2025)
